Numbers sourced from patent US9745328B2.

System: leukotriene pathway in human whole blood (LTB4)
Test: Human whole blood assay (LTB4 levels after calcium ionophore A23187 stimulation)
Type: cell-based
Details: Homo sapiens, human whole blood diluted 1:1, A23187 stimulation; Table 6 (additional runs); read-out: Human Whole Blood LTB4 IC50 1:1
Protocol: The ability of the compounds of the present invention to treat a FLAP-mediated disease and/or disorder, or associated symptoms or complications thereof, was determined using the following procedures. Binding assay data represent the average value obtained from two different assay plates, with samples run in duplicate on each plate. Human whole blood assay data represent a single replicate on an assay plate using whole blood from at least one healthy donor. […]
pIC50: −log10 of the molar value. Structures can show the parent of a compound that is named as a salt.
quantity_kind: pIC50

// below: answered compounds
>  <compound>
Nc1cnc(-c2ccc(-c3ccccc3O[C@H]3CC[C@H](N)CC3)cc2F)cn1

>  <measurement>
6.12

$$$$
>  <compound>
C[C@H](NC(=O)c1cc(C(F)(F)F)ccc1-c1ccc(-c2cnc(N)nc2)c(F)c1)C(F)(F)F

>  <measurement>
5.74

$$$$
>  <compound>
Nc1cnc(-c2ccc(-c3ccccc3-c3ccnc(N)n3)cc2F)cn1

>  <measurement>
6.46

$$$$
>  <compound>
Nc1ccnc(Oc2ccccc2-c2ccc(-c3cnc(N)nc3)c(F)c2)n1

>  <measurement>
7.10

$$$$
>  <compound>
CN1CCC(S(=O)(=O)c2ncccc2-c2ccc(-c3cnc(N)cn3)c(F)c2)C1 (centres unmarked)

>  <measurement>
7.39

$$$$

(1) Nc1ncc(-c2ccc(-c3cccnc3S(=O)(=O)C3CCOCC3)cc2F)cn1 [Example 831, formic acid salt]
(2) Nc1ncc(-c2ccc(-c3ccccc3-c3ccnc(N)n3)cc2F)cn1
Q: Param metric = pIC50; output whichever of 1 , 2 has the minimum value. Return value: the label identifying the chosen record.
Ans: 2

(I) CC(C)S(=O)(=O)c1nc(C(F)(F)F)ccc1-c1ccc(-c2cnc(N)nc2)c(F)c1
(II) Nc1cnc(-c2ccc(-c3ccccc3Oc3ccc(C(=O)O)cc3)cc2F)cn1
Q: Two entries are listed, I and II . Which one carries the higher pIC50? Kindly state the label of the option you pick.
Ans: I
(I: 7.05, II: 6.44)

###

Molecular target: human FLAP (Homo sapiens (Human), UniProt P20292)
Sequence (P20292 whole entry): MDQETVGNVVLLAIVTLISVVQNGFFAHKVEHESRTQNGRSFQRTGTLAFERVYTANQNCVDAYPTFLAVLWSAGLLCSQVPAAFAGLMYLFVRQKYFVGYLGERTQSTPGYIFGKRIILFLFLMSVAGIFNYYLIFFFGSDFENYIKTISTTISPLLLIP
Assay: FLAP binding assay (HTRF format)
Settings: Table 6 (additional runs), human FLAP wild type
quantity_kind: Ki (nM)

Recorded results for 5 compounds are shown here.
>  <compound>
Nc1ccc(-c2ccc(-c3ccccc3S(=O)(=O)N3CCC(CCO)CC3)cc2F)cn1

>  <result_unit>
nM

>  <Ki>
4.3

$$$$
>  <compound>
Nc1cnc(-c2ccc(-c3ccccc3S(=O)(=O)N3CCNC(=O)C3)cc2F)cn1

>  <result_unit>
nM

>  <Ki>
26.6

$$$$
>  <compound>
C[C@H](NS(=O)(=O)c1ccccc1-c1ccc(-c2cnc(N)nc2)c(F)c1)C(=O)OC(C)(C)C

>  <result_unit>
nM

>  <Ki>
4.5

$$$$
>  <compound>
Nc1cnc(-c2ccc(-c3ccccc3S(=O)(=O)NC3Cc4ccccc4C3)cc2F)cn1

>  <result_unit>
nM

>  <Ki>
2.1

$$$$
>  <compound>
Nc1cnc(-c2ccc(-c3ccccc3NS(=O)(=O)N3CCCC3)cc2F)cn1

>  <result_unit>
nM

>  <Ki>
6.7

$$$$

(A) Nc1cnc(-c2ccc(-c3ccccc3S(=O)(=O)N[C@@H]3CCc4ccccc43)cc2F)cn1
(B) CC(C)CNS(=O)(=O)c1ccccc1-c1ccc(-c2cnc(N)cn2)c(F)c1
Q: Hi team, can someone confirm which has the larger Ki: A or B ? Thanks. Bench note: the answer is the label of the chosen record.
Ans: A
(A: 1.2 nM, B: 0.8 nM)
